# ASSAYED SYSTEM: Neuronal acetylcholine receptor; alpha4/beta2 (Homo sapiens, UniProt P17787+P43681)
# Sequence (P17787 whole entry): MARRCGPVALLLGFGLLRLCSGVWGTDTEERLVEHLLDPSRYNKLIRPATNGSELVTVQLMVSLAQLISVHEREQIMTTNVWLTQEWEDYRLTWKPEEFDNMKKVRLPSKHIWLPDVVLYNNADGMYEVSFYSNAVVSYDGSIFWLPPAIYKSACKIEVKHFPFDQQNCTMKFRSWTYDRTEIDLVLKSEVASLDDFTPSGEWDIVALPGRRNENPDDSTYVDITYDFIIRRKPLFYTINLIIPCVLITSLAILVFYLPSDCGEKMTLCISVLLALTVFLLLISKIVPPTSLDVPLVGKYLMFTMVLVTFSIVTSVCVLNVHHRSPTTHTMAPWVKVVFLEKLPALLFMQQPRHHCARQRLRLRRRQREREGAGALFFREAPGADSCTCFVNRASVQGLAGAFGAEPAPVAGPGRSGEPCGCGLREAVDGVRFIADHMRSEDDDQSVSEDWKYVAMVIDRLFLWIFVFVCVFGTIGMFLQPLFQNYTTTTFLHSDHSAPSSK
# Sequence (P43681 whole entry): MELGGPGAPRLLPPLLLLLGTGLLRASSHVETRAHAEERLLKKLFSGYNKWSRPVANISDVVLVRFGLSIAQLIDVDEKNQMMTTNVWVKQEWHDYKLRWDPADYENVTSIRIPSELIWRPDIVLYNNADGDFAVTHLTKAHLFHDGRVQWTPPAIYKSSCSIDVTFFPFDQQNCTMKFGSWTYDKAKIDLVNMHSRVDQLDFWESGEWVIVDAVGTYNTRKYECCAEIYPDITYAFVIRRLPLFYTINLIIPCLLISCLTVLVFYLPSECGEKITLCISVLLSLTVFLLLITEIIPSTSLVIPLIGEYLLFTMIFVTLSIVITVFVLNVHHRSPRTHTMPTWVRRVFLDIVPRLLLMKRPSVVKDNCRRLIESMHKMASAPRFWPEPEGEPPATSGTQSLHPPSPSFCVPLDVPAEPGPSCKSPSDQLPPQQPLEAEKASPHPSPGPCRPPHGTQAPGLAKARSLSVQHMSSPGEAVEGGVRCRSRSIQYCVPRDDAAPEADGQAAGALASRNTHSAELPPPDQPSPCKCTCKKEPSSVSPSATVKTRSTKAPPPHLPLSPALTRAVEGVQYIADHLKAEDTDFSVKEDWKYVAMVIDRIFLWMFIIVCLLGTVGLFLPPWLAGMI
# METHOD DESCRIPTION: Antagonist activity at human alpha4/beta2 nAChR expressed in HEK293 cells assessed as nicotine-induced intracellular calcium release incubated for 15 mins by FLIPR analysis
MEASURED PARAMETER: IC50 (nM)

- COc1ccc(-c2cc(C(=O)N[C@H]3CCCN(C)C3)nn2C)cc1: 2620
- COc1ccc(-c2cc(C(=O)N[C@@H]3CCCN(C)C3)nn2C)c(Cl)c1: 563
- CN(C)C1(CNC(=O)c2cc(-c3ccc(C(F)(F)F)cc3)n(C)n2)CCCC1: 281
- Cn1nc(C(=O)NCCN2CCCCC2)cc1-c1ccc(C(F)(F)F)cc1: 3180
- COc1ccc(-c2cc(C(=O)N[C@H]3CCCN(C)C3)nn2C)c(Cl)c1: 657
- CN1[C@@H]2CCC[C@H]1C[C@H](NC(=O)c1cc(-c3ccc(C(F)(F)F)cc3)n(C)n1)C2: 993
- COc1ccc(-c2cc(C(=O)N[C@@H]3CCCN(C)C3)nn2C)cc1: 3500
- CN1CCC[C@@H](NC(=O)c2cc(-c3ccc(C(F)(F)F)cc3)n(C)n2)C1: 2820
- CN1CCC(NC(=O)c2cc(-c3ccc(C(F)(F)F)cc3)n(C)n2)C1 (racemic): 7720
- CN1CCC(NC(=O)c2cc(-c3ccc(C(F)(F)F)cc3)n(C)n2)CC1: 1040
- CN1CCC[C@H](NC(=O)c2cc(-c3ccc(C(F)(F)F)cc3)n(C)n2)C1: 3730

----------
# METHOD DESCRIPTION: Cmax in Sprague-Dawley rat at 10 mg/kg, po by LC-MS/MS analysis
# Assay type: ADME, organism-based
# Set-up: dose 10 mg/kg, route po
# TEST SETTINGS: in vivo
MEASURED PARAMETER: Cmax (nM)

* COc1ccc(-c2cc(C(=O)N[C@H]3CCCN(C)C3)nn2C)c(Cl)c1 | 350

----------
# METHOD DESCRIPTION: Metabolic stability in human hepatocytes assessed as intrinsic clearance measured per 10^6 cells
# Assay type: ADME, cell-based, Hepatocyte
MEASURED PARAMETER: CLint (µL/min/1e6 cells)

- COc1ccc(-c2cc(C(=O)N[C@H]3CCCN(C)C3)nn2C)c(Cl)c1: 3.7

----------
# METHOD DESCRIPTION: Metabolic stability in rat hepatocytes assessed as intrinsic clearance measured per 10^6 cells
# Format: ADME, cell-based, Hepatocyte
MEASURED PARAMETER: CLint

- COc1ccc(-c2cc(C(=O)N[C@H]3CCCN(C)C3)nn2C)c(Cl)c1: 20.8 µL/min/1e6 cells

----------
The entries below come with measured pIC50 values attached.
# ASSAYED SYSTEM: Neuronal acetylcholine receptor; alpha3/beta4 (Homo sapiens, UniProt P30926+P32297)
# Sequence (P30926 whole entry): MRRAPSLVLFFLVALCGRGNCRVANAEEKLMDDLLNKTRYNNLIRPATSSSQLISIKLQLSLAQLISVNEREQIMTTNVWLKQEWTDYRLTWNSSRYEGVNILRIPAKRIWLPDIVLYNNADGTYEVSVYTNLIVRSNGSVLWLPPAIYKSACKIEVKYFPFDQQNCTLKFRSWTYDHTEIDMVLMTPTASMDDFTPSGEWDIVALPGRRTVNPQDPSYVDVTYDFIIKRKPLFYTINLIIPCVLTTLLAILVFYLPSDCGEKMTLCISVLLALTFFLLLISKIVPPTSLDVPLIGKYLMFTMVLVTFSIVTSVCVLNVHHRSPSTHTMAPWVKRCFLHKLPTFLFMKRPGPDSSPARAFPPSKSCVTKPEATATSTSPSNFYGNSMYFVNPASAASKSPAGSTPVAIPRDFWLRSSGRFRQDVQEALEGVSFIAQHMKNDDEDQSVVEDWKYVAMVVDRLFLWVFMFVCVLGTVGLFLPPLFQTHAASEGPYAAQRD
# Sequence (P32297 whole entry): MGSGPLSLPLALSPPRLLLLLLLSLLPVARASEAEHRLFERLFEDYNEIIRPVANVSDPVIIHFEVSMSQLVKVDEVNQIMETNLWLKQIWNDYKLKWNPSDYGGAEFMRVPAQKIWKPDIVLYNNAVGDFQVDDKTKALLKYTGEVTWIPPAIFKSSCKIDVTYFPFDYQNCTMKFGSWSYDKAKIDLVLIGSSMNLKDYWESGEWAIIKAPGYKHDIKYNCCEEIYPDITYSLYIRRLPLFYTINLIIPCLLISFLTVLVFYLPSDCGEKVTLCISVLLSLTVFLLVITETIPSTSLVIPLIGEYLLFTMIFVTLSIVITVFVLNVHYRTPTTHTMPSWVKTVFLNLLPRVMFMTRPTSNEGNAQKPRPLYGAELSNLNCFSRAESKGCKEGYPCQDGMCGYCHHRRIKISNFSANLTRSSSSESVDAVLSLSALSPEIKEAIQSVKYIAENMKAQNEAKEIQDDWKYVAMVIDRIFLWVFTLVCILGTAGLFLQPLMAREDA
# METHOD DESCRIPTION: Antagonist activity at human alpha3/beta4 nAChR expressed in HEK293 cells assessed as nicotine-induced intracellular calcium release incubated for 15 mins by FLIPR analysis
pIC50: −log10 of the molar value.
MEASURED PARAMETER: pIC50

• CN1CCC(NC(=O)c2cc(-c3ccc(C(F)(F)F)cc3)n(C)n2)CC1 = 5.30
• CN1[C@@H]2CCC[C@H]1C[C@H](NC(=O)c1cc(-c3ccc(C(F)(F)F)cc3)n(C)n1)C2 = 5.20
• COc1ccc(-c2cc(C(=O)N[C@H]3CCCN(C)C3)nn2C)c(Cl)c1 = 5.59
• CN1CCC[C@@H](NC(=O)c2cc(-c3ccc(C(F)(F)F)cc3)n(C)n2)C1 = 6.20

// data source = ChEMBL document CHEMBL5365451
